- EXPERIMENTAL PROTOCOL: recombinant barcode read abundance after kanamycin selection (control-corrected) (log10(CPM+1)); higher = more efficient recombination; sequences stand for … in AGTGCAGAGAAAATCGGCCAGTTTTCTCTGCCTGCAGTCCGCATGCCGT…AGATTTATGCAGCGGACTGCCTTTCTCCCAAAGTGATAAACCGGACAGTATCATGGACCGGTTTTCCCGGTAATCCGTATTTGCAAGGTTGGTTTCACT; site = the 11-nt target;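 note: IS621 recombinase and bridge RNA in Escherichia coli cells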
MEASURE: recombinant barcode read abundance (log10)

SEQUENCE TEXT	MEASURED NUMBER
TACCGCTCTTGGGTTCTAACCTGTTGCTT (site TACGGCTCTAA)	0.043
GAAATGTCTTGGGTTCTAACCTGTTGCCT (site GAAATGTCTAG)	1.75
TATCCGACTTGGGTTCTAACCTGTTGCCT (site TATCCGACTCG)	0.553
GCACTCCCTTGGGTTCTAACCTGTTGCCT (site GCTCTCCCTAG)	0.831
CGCGTTCCTTGGGTTCTAACCTGTTGCCT (site CGCGTTCCTAG)	0.197

* * *

- EXPERIMENTAL PROTOCOL: recombinant barcode read abundance after kanamycin selection (control-corrected) (log10(CPM+1)); higher = more efficient recombination; sequences stand for … in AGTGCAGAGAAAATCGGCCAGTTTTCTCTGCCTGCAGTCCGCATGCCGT…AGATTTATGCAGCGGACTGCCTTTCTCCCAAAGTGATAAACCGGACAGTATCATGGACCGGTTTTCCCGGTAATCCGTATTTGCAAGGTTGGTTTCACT; site = the 11-nt target
// recombinant barcode read abundance (log10) lookup, one value per entry
MEASURE: recombinant barcode read abundance (log10)

SEQUENCE TEXT	MEASURED NUMBER
AGGTCTACTTGGGTTCTAACCTGTTGCAC (site GTCCTATCTTA)	0.13
CCTGGGGCTTGGGTTCTAACCTGTTGCCT (site CCTGGTCCTAG)	0.189
GTGAGGACTTGGGTTCTAACCTGTTGCGT (site GTGCGGACTAC)	0.236
ACATTTACTTGGGTTCTAACCTGTTGCCT (site TCATATACTAG)	0.242
GAGGTAGCTTGGGTTCTAACCTGTTGCCT (site GATGTATCTAG)	0.563
CTAGTGACTTGGGTTCTAACCTGTTGCGC (site CTAGTGACTGC)	2.12
AACTGTCCTTGGGTTCTAACCTGTTGCAT (site AACTCTCCTAT)	0.0428
TCCCAAGCTTGGGTTCTAACCTGTTGCTA (site TCCTAAGCTTA)	0.141
ACATATCCTTGGGTTCTAACCTGTTGCGT (site ACCTACCCTAC)	0.0409
CTAATATCTTGGGTTCTAACCTGTTGCAT (site CTAATATCTAT)	1.26
CTTCAATCTTGGGTTCTAACCTGTTGCCT (site CTTGAATCTAG)	0.35
TAGAATCCTTGGGTTCTAACCTGTTGCAC (site TAGAATCCTAT)	0.117
TGTGCGTCTTGGGTTCTAACCTGTTGCCT (site CGTGCGTCTAG)	0.136
TCTGGGGCTTGGGTTCTAACCTGTTGCAG (site TCTGGGGCTCG)	0.159
GGGATACCTTGGGTTCTAACCTGTTGCCT (site GGGATACCTAG)	2.6
ACGCGTCCTTGGGTTCTAACCTGTTGCCG (site TCGCGTCCTCG)	0.355
GAGTGGCCTTGGGTTCTAACCTGTTGCGT (site GAGTGGCCTAT)	1.32
TAGACTACTTGGGTTCTAACCTGTTGCTC (site TAGACTACTAA)	0
GCGGCGACTTGGGTTCTAACCTGTTGCCT (site GCGGCGACTAG)	0.891
GTCATGCCTTGGGTTCTAACCTGTTGCCT (site GGCCTGCCTAG)	0.0766
GAGCGATCTTGGGTTCTAACCTGTTGCGT (site GAGCGATCTAC)	1.85

Source of measurements: the supplement of paper PMC11208160
